Test system: MS2 coat protein
Assay: apparent KD of MS2 coat protein; higher = weaker reporter binding
Conditions: Eterna round: R107; input ligand: none
Label Y when apparent KD of MS2 coat protein >= 20 nM; otherwise N.

Example cases with answers are listed next.
>>> group_label("ACAUGAGGAUCACCCAUGUUCAUGCGGGAAGGAGCGUGCGGAAGCACAGGUAGGUCGCCCUCAAUAUCUAACGUUACGUUCAUGA [#26 Same State - Arginine A]")
"N"
>>> group_label("AAAGUUGAUGAGUUGCGUUUGUGUUCCGAAGGAGCGAGAAUUAUCUCAGGUAGGUCGCGGAACAUGAGGAUCACCCAUGUAUAAA [XArg-A 19 NuV1&2 original #dotplot2>1]")
"Y"

Threshold query (apparent KD of MS2 coat protein >= 20 nM) on GGUCUCUGGAGCGAUACCAGCUUGAUCGUACUAGCCUGGUACAUGAGGAUCACCCAUGUAAGCCCUUGGCAGCGCUCCAGAGACC [#1 Exclusion - Theophylline B Attempt #8 (HarryS)] N

Threshold query (apparent KD of MS2 coat protein >= 20 nM) on ACAUGAGGAUCACCCAUGUAAUCAUCAGAAGGAGCGUGGAAUAACACAGGUAGGUCGCUGAUGUUAUGUUAAAAUGGUUCGUGAA [JR_ExcArginiA_Sub002] N

Threshold query (apparent KD of MS2 coat protein >= 20 nM) on GGCACCAGGAGAAGGAGCGUGAAGACAUGAGGAUCACCCAUGUAGAGGCGCCGACGGCGUUCGCAGGUAGGUCGCUCCUGGUGCC [#1 Same State - Arginine B Attempt #16 (HarryS)] Y

Threshold query (apparent KD of MS2 coat protein >= 20 nM) on GCUAGGUCAUCGGCCGCCACUAACGAUGGCUCCGACAUGAGGAUCACCCAUGUGCCACUUGCGCAUAGGACCGGGAUGACCUAGC [SSTB NP+V+V2 #1] N
